Data credit: ChEMBL document CHEMBL5058577

Provide the recorded Population Tubulin-Different-Phenotype (%) for the entries that follow.
- Tested on: Fibroblast
- assay-summary: Multiplex assay against human fibroblast
- Assay type: toxicity, cell-based
- measurement-parameters: 48 h, 1 µM, compound concentration 1 uM, replicate 2
Answers are plain numbers, in %.

{"compound": "CC(C)(C)c1ccc(CSc2cnn(C(C)(C)C)c(=O)c2Cl)cc1 [PYRIDABEN]", "tested-on": "Fibroblast", "readout-number": 63}
{"compound": "COc1cc(Nc2ncc3c(n2)-c2ccc(Cl)cc2C(c2c(F)cccc2OC)=NC3)ccc1C(=O)O [ALISERTIB]", "tested-on": "Fibroblast", "readout-number": 54}
{"compound": "OCCCNc1cc(-c2ccnc(Nc3cccc(Cl)c3)n2)ccn1", "tested-on": "Fibroblast", "readout-number": 45}

Attention now turns to another entry.
Ask: Can you look up Population Tubulin-Different-Phenotype (%) on Fibroblast for `S=C(NCCCc1c[nH]cn1)NCCCN(Cc1ccc(Cl)c(Cl)c1)c1ccc(Br)cn1` ?
Reply: 36
